Just for reference, patent US20100036088A1 is where these values come from.

# Test system: human erythrocytes
# Procedure summary: Hemolysis assay
# Assay type: cell-based
Numbered stars: 1 amine (or outer) side, 2 acyl side, 3 side chain; on linkers, the order of the positions; unused ones are H or OH. Square brackets hold non-standard residues; d marks the D form. Peptide text beside a SMILES is read from it. X1 = CC(C)[C@H](C)N(CC(=O)[*:2])[*:1]; Nspe = C[C@H](NCC(=O)O)c1ccccc1; NDecylGly = CCCCCCCCCCNCC(=O)O; Nlys = NCCCCNCC(=O)O
Parameter: HD50

QUERY: Quickly give me recorded HD50 for C[C@@H](c1ccccc1)N(CC(N)=O)C(=O)CN(C(=O)CN(CCCCN)C(=O)CN(C(=O)CN(C(=O)CN(CCCCN)C(=O)[C@@H]1CCCN1C(=O)CN(C(=O)CN(CCCCN)C(=O)CN(C(=O)CN(C(=O)CNCCCCN)[C@@H](C)c1ccccc1)[C@@H](C)c1ccccc1)[C@@H](C)c1ccccc1)[C@@H](C)c1ccccc1)[C@@H](C)c1ccccc1)[C@@H](C)c1ccccc1 [1-Pro6] (H-[Nlys][Nspe][Nspe][Nlys][Nspe]P[Nlys][Nspe][Nspe][Nlys][Nspe][Nspe]-NH2)
RESULT: > 200 µM

QUERY: Give me measured HD50, please, for this molecule: CC(C)[C@H](C)N(CC(=O)N(CC(=O)N(CCCCN)CC(=O)N(CC(=O)N(CC(=O)N(CCCCN)CC(=O)N(CC(=O)N(CC(=O)N(CCCCN)CC(=O)N(CC(=O)N(CC(N)=O)[C@@H](C)c1ccccc1)[C@@H](C)C(C)C)[C@@H](C)c1ccccc1)[C@@H](C)C(C)C)[C@@H](C)c1ccccc1)[C@@H](C)C(C)C)[C@@H](C)c1ccccc1)C(=O)CNCCCCN [1-Nsdp2,5,8,11, H-(Nlys-Nsdp-Nspe)4-NH2] (H-[Nlys][X1][Nspe][Nlys][X1][Nspe][Nlys][X1][Nspe][Nlys][X1][Nspe]-NH2)
RESULT: > 200 µM

QUERY: Return HD50 (reported value) for this molecule: C[C@@H](c1ccccc1)N(CC(N)=O)C(=O)CN(Cc1ccccc1)C(=O)CN(CCCCN)C(=O)CN(Cc1ccccc1)C(=O)CN(Cc1ccccc1)C(=O)CN(CCCCN)C(=O)CN(Cc1ccccc1)C(=O)CN(Cc1ccccc1)C(=O)CN(CCCCN)C(=O)CN(Cc1ccccc1)C(=O)CN(Cc1ccccc1)C(=O)CNCCCCN
RESULT: > 200 µM

QUERY: Specify HD50 for CCCCCCCCCCNCC(=O)N(CCCCN)CC(=O)N(CC(=O)N(CC(=O)N(CCCCN)CC(=O)N(CC(=O)N(CC(=O)N(CCCCN)CC(=O)N(CC(=O)N(CC(N)=O)[C@@H](C)c1ccccc1)[C@@H](C)c1ccccc1)[C@@H](C)c1ccccc1)[C@@H](C)c1ccccc1)[C@@H](C)c1ccccc1)[C@@H](C)c1ccccc1 [C10-19 mer] (H-[NDecylGly][Nlys][Nspe][Nspe][Nlys][Nspe][Nspe][Nlys][Nspe][Nspe]-NH2) and stop.
RESULT: 40 µM

QUERY: Tell us which HD50 value is on record for CCCCCCCCCCNCC(=O)N(CCCCN)CC(=O)N(CC(=O)N(CC(=O)N(CCCCN)CC(=O)N(CC(=O)N(CC(=O)N(CCCCN)CC(=O)N(CC(=O)N(CC(=O)N(CCCCN)CC(=O)N(CC(=O)N(CC(N)=O)[C@@H](C)c1ccccc1)[C@@H](C)c1ccccc1)[C@@H](C)c1ccccc1)[C@@H](C)c1ccccc1)[C@@H](C)c1ccccc1)[C@@H](C)c1ccccc1)[C@@H](C)c1ccccc1)[C@@H](C)c1ccccc1 [C10-1] (H-[NDecylGly][Nlys][Nspe][Nspe][Nlys][Nspe][Nspe][Nlys][Nspe][Nspe][Nlys][Nspe][Nspe]-NH2)
RESULT: 27 µM

QUERY: Identify measured HD50 corresponding to C[C@@H](c1ccccc1)N(CC(N)=O)C(=O)CN(C(=O)CN(CCCCN)C(=O)CN(C(=O)CN(C(=O)CN(CCCCN)C(=O)CN(CCc1cnc[nH]1)C(=O)CN(C(=O)CN(CCCCN)C(=O)CN(C(=O)CN(C(=O)CNCCCCN)[C@@H](C)c1ccccc1)[C@@H](C)c1ccccc1)[C@@H](C)c1ccccc1)[C@@H](C)c1ccccc1)[C@@H](C)c1ccccc1)[C@@H](C)c1ccccc1
RESULT: > 200 µM

QUERY: Look up and state reported HD50 for C[C@H](NCC(=O)N(CCCCN)CC(=O)N(CC(=O)N(CC(=O)N(CCCCN)CC(=O)N(CC(=O)N(CC(=O)N(CCCCN)CC(=O)N(CC(=O)N(CC(=O)N(CCCCN)CC(=O)N(CC(N)=O)[C@@H](C)c1ccccc1)[C@@H](C)c1ccccc1)[C@@H](C)c1ccccc1)[C@@H](C)c1ccccc1)[C@@H](C)c1ccccc1)[C@@H](C)c1ccccc1)[C@@H](C)c1ccccc1)c1ccccc1 [1B, H-(Nspe-Nlys-Nspe)4-NH2] (H-[Nspe][Nlys][Nspe][Nspe][Nlys][Nspe][Nspe][Nlys][Nspe][Nspe][Nlys][Nspe]-NH2)
RESULT: > 100 µM

====

# Procedure summary: MTS assay, metabolic inhibition
# Type: cell-based, mouse
Square brackets hold non-standard residues; d marks the D form. Peptide text beside a SMILES is read from it. Nspe = C[C@H](NCC(=O)O)c1ccccc1; Nlys = NCCCCNCC(=O)O
I'd appreciate it if you could supply IC50 values for the items below.
Hi! Could you send only the number? It should be in µM, unit omitted.

QUERY: Name the recorded IC50 of the item C[C@H](NCC(=O)N(CCCCN)CC(=O)N(CC(=O)N(CCCCN)CC(=O)N(CCCCN)CC(=O)N(CC(=O)N(CC(=O)N(CCCCN)CC(=O)N(CC(=O)N(CCCCN)CC(=O)N(CCCCN)CC(=O)N(CC(N)=O)[C@@H](C)c1ccccc1)[C@@H](C)c1ccccc1)[C@@H](C)c1ccccc1)[C@@H](C)c1ccccc1)[C@@H](C)c1ccccc1)c1ccccc1 [1B-Nlys4,10, H-(Nspe-Nlys-Nspe-Nlys-Nlys-Nspe)2-NH2] (H-[Nspe][Nlys][Nspe][Nlys][Nlys][Nspe][Nspe][Nlys][Nspe][Nlys][Nlys][Nspe]-NH2) in your answer.
RESULT: 83

QUERY: Supply measured IC50 of C[C@@H](c1ccccc1)N(CC(N)=O)C(=O)CN(C(=O)CN(CCCCN)C(=O)CN(C(=O)CN(C(=O)CN(CCCCN)C(=O)CN(C(=O)CN(C(=O)CN(CCCCN)C(=O)[C@@H]1CCCN1C(=O)CN(C(=O)CNCCCCN)[C@@H](C)c1ccccc1)[C@@H](C)c1ccccc1)[C@@H](C)c1ccccc1)[C@@H](C)c1ccccc1)[C@@H](C)c1ccccc1)[C@@H](C)c1ccccc1 [1-Pro3, H-Nlys-Nspe-L-Pro-(Nlys-Nspe-Nspe)3-NH2] (H-[Nlys][Nspe]P[Nlys][Nspe][Nspe][Nlys][Nspe][Nspe][Nlys][Nspe][Nspe]-NH2) in your reply.
RESULT: 12

====

# Tested on: human erythrocytes
# Procedure summary: Hemolysis assay
# Format: cell-based
Numbered stars: 1 amine (or outer) side, 2 acyl side, 3 side chain; on linkers, the order of the positions; unused ones are H or OH. Square brackets hold non-standard residues; d marks the D form. Peptide text beside a SMILES is read from it. X1 = CC(C)[C@H](C)N(CC(=O)[*:2])[*:1]; Nspe = C[C@H](NCC(=O)O)c1ccccc1; NDecylGly = CCCCCCCCCCNCC(=O)O; Nphe = O=C(O)CNCc1ccccc1; Nlys = NCCCCNCC(=O)O
Task for the reader: assign each of the following compounds its reported HD10.
Express it in µM; write the number only.

QUERY: Determine its reported HD10: CCCCCCCCCCNCC(=O)N(CCCCN)CC(=O)N(CC(=O)N(CC(=O)N(CCCCN)CC(=O)N(CC(=O)N(CC(=O)N(CCCCN)CC(=O)N(CC(=O)N(CC(=O)N(CCCCN)CC(=O)N(CC(=O)N(CC(N)=O)[C@@H](C)c1ccccc1)[C@@H](C)c1ccccc1)[C@@H](C)c1ccccc1)[C@@H](C)c1ccccc1)[C@@H](C)c1ccccc1)[C@@H](C)c1ccccc1)[C@@H](C)c1ccccc1)[C@@H](C)c1ccccc1 [C10-1] (H-[NDecylGly][Nlys][Nspe][Nspe][Nlys][Nspe][Nspe][Nlys][Nspe][Nspe][Nlys][Nspe][Nspe]-NH2)
RESULT: 8

QUERY: Identify measured HD10 associated with C[C@@H](c1ccccc1)N(CC(N)=O)C(=O)CN(C(=O)CN(CCCCN)C(=O)CN(C(=O)CN(C(=O)CN(CCCCN)C(=O)CN(CCc1cnc[nH]1)C(=O)CN(C(=O)CN(CCCCN)C(=O)CN(C(=O)CN(C(=O)CNCCCCN)[C@@H](C)c1ccccc1)[C@@H](C)c1ccccc1)[C@@H](C)c1ccccc1)[C@@H](C)c1ccccc1)[C@@H](C)c1ccccc1)[C@@H](C)c1ccccc1 [1-Nhis6]
RESULT: 170

QUERY: Complete the entry with HD10 for C[C@@H](c1ccccc1)N(CC(=O)N(CC(=O)N(CCCCN)CC(=O)N(CC(=O)N(CC(=O)N(CCCCN)CC(=O)N(CC(=O)N(CC(=O)N(CCCCN)CC(=O)N(CC(=O)N(CC(N)=O)Cc1ccccc1)Cc1ccccc1)Cc1ccccc1)Cc1ccccc1)Cc1ccccc1)Cc1ccccc1)Cc1ccccc1)C(=O)CNCCCCN [1ach-Nspe2, H-(Nlys-Nspe-Npm)-(Nlys-Npm-Npm)3-NH2] (H-[Nlys][Nspe][Nphe][Nlys][Nphe][Nphe][Nlys][Nphe][Nphe][Nlys][Nphe][Nphe]-NH2)
RESULT: 160

QUERY: Provide only the value of recorded HD10 for C[C@@H](c1ccccc1)N(CC(N)=O)C(=O)CN(Cc1ccccc1)C(=O)CN(CCCCN)C(=O)CN(Cc1ccccc1)C(=O)CN(Cc1ccccc1)C(=O)CN(CCCCN)C(=O)CN(Cc1ccccc1)C(=O)CN(Cc1ccccc1)C(=O)CN(CCCCN)C(=O)CN(Cc1ccccc1)C(=O)CN(Cc1ccccc1)C(=O)CNCCCCN [1ach-Nspe12, H-(Nlys-Npm-Npm)3-(Nlys-Npm-Nspe)-NH2]
RESULT: 164

QUERY: Report measured HD10; entry is CC(C)[C@H](C)N(CC(=O)N(CCCCN)CC(=O)N(CC(=O)N(CC(=O)N(CCCCN)CC(=O)N(CC(=O)N(CC(=O)N(CCCCN)CC(=O)N(CC(=O)N(CC(N)=O)[C@@H](C)c1ccccc1)[C@@H](C)c1ccccc1)[C@@H](C)C(C)C)[C@@H](C)C(C)C)[C@@H](C)c1ccccc1)[C@@H](C)c1ccccc1)C(=O)CN(C(=O)CNCCCCN)[C@@H](C)C(C)C [1-Nsdp2,3,8,9, H-(Nlys-Nsdp-Nsdp-Nlys-Nspe-Nspe)2-NH2] (H-[Nlys][X1][X1][Nlys][Nspe][Nspe][Nlys][X1][X1][Nlys][Nspe][Nspe]-NH2)
RESULT: 77
